# systemTested: RARs
# assayDetails: Binding to RARs (stated over all three subtypes)
# testContext: range over RARα, RARβ and RARγ
pKd: −log10 of the molar value.
measurementLabel: pKd

Incoming: Endpoint output: pKd of "CCc1ccc(C2=CC(C)(C)Sc3ccc(C#Cc4ccc(C(=O)O)cc4)cc32)cc1" . Value?
Outgoing: 8.30 to 8.70

====

# Tested on: DU145 ITS+ cells
# assayDetails: Plate colony formation assay, serum-free (ITS+)-grown DU145
# Format: cell-based, human
# testContext: 14 days
Reported pIC50 is given for each of the following compounds.
Here pIC50 is given on a logarithmic scale as minus log10 of the concentration in mol/L.

Sample answers from the record:
Cc1ccc(C2=CC(C)(C)Oc3c(Br)cc(C(=O)Nc4ccc(C(=O)O)c(F)c4)cc32)cc1 6.70
CCc1ccc(C2=CC(C)(C)Sc3ccc(C#Cc4ccc(C(=O)O)cc4)cc32)cc1 7.47

Note: attention shifts to another entry.
Incoming: Endpoint output: pIC50 of "Cc1ccc(C2=CCC(C)(C)c3ccc(N=Nc4ccc(C(=O)O)cc4F)cc32)cc1" . Value?
Outgoing: 7.06
